tested on: Klebsiella pneumoniae; test: microbe, parasite or virus in culture; conditions: T6474
QUANTITY_MEASURED: MIC (µg/mL)
Give the quantity in µg/mL, number only.

{"columns": ["MOLECULE", "SYSTEM_NAME", "READOUT_NUMBER"],
 "data": [
  ["C[C@@](CCN1Cc2cc(C#CC#C[C@H]3C[C@]3(F)CO)cn2C1=O)(C(=O)NO)S(C)(=O)=O", "Klebsiella pneumoniae", 0.5],
  ["CN(C)C1(C#CC#Cc2cc3n(c2)C(=O)N(CC[C@](C)(C(=O)NO)S(C)(=O)=O)C3)CC1", "Klebsiella pneumoniae", 0.5],
  ["CN1CC(C#CC#Cc2cc3n(c2)C(=O)N(CC[C@](C)(C(=O)NO)S(C)(=O)=O)C3)C1", "Klebsiella pneumoniae", 0.5]
]}

Asked: Request the reported MIC associated with `C[C@@](CCN1Cc2cc(C#CC#CC3CN(C4COC4)C3)cn2C1=O)(C(=O)NO)S(C)(=O)=O`
Given back: 0.5
